This collection of values is drawn from patent US11814388B1.

Examples of compounds with documented pKd follow.
target: AURKA (Homo sapiens (Human), UniProt O14965)
Sequence (O14965 whole entry): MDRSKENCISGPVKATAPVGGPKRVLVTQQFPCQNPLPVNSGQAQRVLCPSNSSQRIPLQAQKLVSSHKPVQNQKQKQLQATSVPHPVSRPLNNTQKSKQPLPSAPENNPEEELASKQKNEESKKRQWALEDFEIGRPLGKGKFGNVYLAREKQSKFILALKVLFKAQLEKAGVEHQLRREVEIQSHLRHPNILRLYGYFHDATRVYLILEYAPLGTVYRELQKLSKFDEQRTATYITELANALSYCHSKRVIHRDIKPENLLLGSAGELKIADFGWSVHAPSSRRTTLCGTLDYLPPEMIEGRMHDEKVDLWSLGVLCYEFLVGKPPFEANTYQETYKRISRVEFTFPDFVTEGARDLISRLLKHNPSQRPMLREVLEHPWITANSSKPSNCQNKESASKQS
pKd: −log10 of the molar value.

# compound, pKd
records = [
    ("COc1ccc(Nc2ncnc3[nH]ccc23)cc1 [Compound 3]", 5.46),
    ("O=S(=O)(Nc1ccc(Nc2ncnc3[nH]ccc23)cc1)c1ccccc1 [Compound 6]", 5.68),
    ("O=C(Nc1ccc(Nc2ncnc3[nH]ccc23)cc1)c1ccccc1 [Compound 5]", 5.80),
    ("Brc1cccc(Nc2ncnc3[nH]ccc23)c1 [Compound 4]", 5.47),
]

====

molecular target: AURKB (Homo sapiens (Human))
Sequence (Q96GD4 whole entry): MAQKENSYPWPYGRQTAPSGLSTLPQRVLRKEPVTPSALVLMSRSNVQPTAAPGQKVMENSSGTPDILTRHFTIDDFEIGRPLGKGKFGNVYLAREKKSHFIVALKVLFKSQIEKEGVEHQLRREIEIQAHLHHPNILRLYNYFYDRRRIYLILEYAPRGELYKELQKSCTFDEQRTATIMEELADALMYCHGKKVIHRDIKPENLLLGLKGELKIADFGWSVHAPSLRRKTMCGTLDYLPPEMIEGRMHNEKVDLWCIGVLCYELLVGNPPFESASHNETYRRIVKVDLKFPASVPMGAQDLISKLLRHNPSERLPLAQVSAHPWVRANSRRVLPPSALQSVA
pKd: −log10 of the molar value.
quantity.measured: pKd

# line.notation, quantity.measured, measured.value
data = [
    ("Brc1cccc(Nc2ncnc3[nH]ccc23)c1", "pKd", 5.32),
    ("COc1ccc(Nc2ncnc3[nH]ccc23)cc1", "pKd", 4.92),
]
